Measured IC90 at 1 h, listed per entry for reference.
test: Induction of hemolysis in sheep erythrocytes incubated at 37 degC for 60 mins; type: cell-based, Ovis aries, Erythrocyte

# INPUT_SMILES, MEAS_VALUE
measured = [
    ("CCCCCCCCCCCCCCCCCC(=O)NC[C@H]1O[C@@H](O[C@@H]2[C@@H](O)[C@H](N)C[C@H](N)[C@H]2O[C@H]2O[C@H](CN)[C@@H](O)[C@H](O)[C@H]2N)[C@H](O)[C@@H]1O[C@H]1O[C@@H](CN)[C@@H](O)[C@H](O)[C@H]1N", "> 1000 µg/mL"),
]

Read the next record carefully.
Query :: Query: IC90 at 1 h; subject: `CCCCCCCCCCCCCCCC(=O)NC[C@H]1O[C@@H](O[C@@H]2[C@@H](O)[C@H](N)C[C@H](N)[C@H]2O[C@H]2O[C@H](CN)[C@@H](O)[C@H](O)[C@H]2N)[C@H](O)[C@@H]1O[C@H]1O[C@@H](CN)[C@@H](O)[C@H](O)[C@H]1N`
Result :: > 1000 µg/mL

----------
assay: Induction of hemolysis in sheep erythrocytes at 28 ug/ml; type: cell-based, Ovis aries, Erythrocyte; details: read-out: Activity
READOUT_KIND: hemolysis at 28 ug/ml (%)
Answer in %, number only, no unit symbol.

Query :: Item `CCCCCCCCO[C@H]1[C@H](N)[C@@H](O)[C@@H](O[C@@H]2[C@@H](O)[C@H](O[C@H]3O[C@H](CN)[C@@H](O)[C@H](O)[C@H]3N)[C@@H](N)C[C@H]2N)O[C@@H]1C` has what recorded hemolysis at 28 ug/ml?
Result :: 2

----------
tested on: Staphylococcus aureus; assay: Antimicrobial activity against methicillin-resistant Staphylococcus aureus ATCC 33591 assessed as inhibition of bacterial growth incubated at 35 degC for 12 to 18 hrs; type: functional
READOUT_KIND: log10(MIC) (log10 of the value in µg/mL)
Could you please treat all values as log10 of MIC in µg/mL?

# COMPOUND, MEAS_VALUE
measured = [
    ("NC[C@@H]1O[C@H](O[C@H]2[C@@H](O)[C@H](O[C@@H]3[C@@H](O)[C@H](N)C[C@H](N)[C@H]3O[C@H]3O[C@H](CN)[C@@H](O)[C@H](O)[C@H]3N)O[C@@H]2CO)[C@H](N)[C@@H](O)[C@@H]1O [FRAMYCETIN]", 2.10),
    ("CCCCCCCCCCCC(=O)NC[C@H]1O[C@@H](O[C@@H]2[C@@H](O)[C@H](N)C[C@H](N)[C@H]2O[C@H]2O[C@H](CN)[C@@H](O)[C@H](O)[C@H]2N)[C@H](O)[C@@H]1O[C@H]1O[C@@H](CN)[C@@H](O)[C@H](O)[C@H]1N", 1.20),
]

Query :: Could you tell me which log10(MIC) is on file for `CCCCCCCCCCCCCCCCCC(=O)NC[C@H]1O[C@@H](O[C@@H]2[C@@H](O)[C@H](N)C[C@H](N)[C@H]2O[C@H]2O[C@H](CN)[C@@H](O)[C@H](O)[C@H]2N)[C@H](O)[C@@H]1O[C@H]1O[C@@H](CN)[C@@H](O)[C@H](O)[C@H]1N` ?
Result :: 0.30

Query :: Can you check NCC[C@H](O)C(=O)N[C@@H]1C[C@H](N)[C@@H](O[C@H]2O[C@H](CN)[C@@H](O)[C@H](O)[C@H]2O)[C@H](O)[C@H]1O[C@H]1O[C@H](CO)[C@@H](O)[C@H](N)[C@H]1O [AMIKACIN] next?
Result :: 0.90

Query :: Next compound: `CCCCCCCCCCCCCC(=O)NC[C@H]1O[C@@H](O[C@@H]2[C@@H](O)[C@H](N)C[C@H](N)[C@H]2O[C@H]2O[C@H](CN)[C@@H](O)[C@H](O)[C@H]2N)[C@H](O)[C@@H]1O[C@H]1O[C@@H](CN)[C@@H](O)[C@H](O)[C@H]1N`
Result :: 0.60

Query :: `CCCCCCC(=O)NC[C@H]1O[C@@H](O[C@@H]2[C@@H](O)[C@H](N)C[C@H](N)[C@H]2O[C@H]2O[C@H](CN)[C@@H](O)[C@H](O)[C@H]2N)[C@H](O)[C@@H]1O[C@H]1O[C@@H](CN)[C@@H](O)[C@H](O)[C@H]1N` , same question.
Result :: 2.10

Query :: Another compound to check: `CCCCCCCCCC(=O)NC[C@H]1O[C@@H](O[C@@H]2[C@@H](O)[C@H](N)C[C@H](N)[C@H]2O[C@H]2O[C@H](CN)[C@@H](O)[C@H](O)[C@H]2N)[C@H](O)[C@@H]1O[C@H]1O[C@@H](CN)[C@@H](O)[C@H](O)[C@H]1N`
Result :: 2.10

Query :: Let us now turn to `CCCCCCCCCCCCCCCC(=O)NC[C@H]1O[C@@H](O[C@@H]2[C@@H](O)[C@H](N)C[C@H](N)[C@H]2O[C@H]2O[C@H](CN)[C@@H](O)[C@H](O)[C@H]2N)[C@H](O)[C@@H]1O[C@H]1O[C@@H](CN)[C@@H](O)[C@H](O)[C@H]1N`
Result :: 0.30

Data provenance: ChEMBL document CHEMBL3588813
